Target: NK1 receptor (Cavia porcellus)
Construct: from tissue; host or cells: isolated guinea pig ileum
Sequence (P30547 whole entry): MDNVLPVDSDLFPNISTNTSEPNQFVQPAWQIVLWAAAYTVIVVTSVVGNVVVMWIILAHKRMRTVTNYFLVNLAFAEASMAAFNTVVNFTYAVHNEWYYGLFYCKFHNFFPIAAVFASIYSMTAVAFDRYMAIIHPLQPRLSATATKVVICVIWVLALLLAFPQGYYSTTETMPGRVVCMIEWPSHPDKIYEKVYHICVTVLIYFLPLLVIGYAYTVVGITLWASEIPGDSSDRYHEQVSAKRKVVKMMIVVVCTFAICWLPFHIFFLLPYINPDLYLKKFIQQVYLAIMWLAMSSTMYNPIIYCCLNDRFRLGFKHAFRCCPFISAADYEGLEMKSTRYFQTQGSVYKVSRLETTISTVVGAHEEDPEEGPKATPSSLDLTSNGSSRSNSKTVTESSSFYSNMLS
Assay: Test for NK1 receptor antagonist: substance P concentration-response in isolated guinea pig ileum, Schild analysis
Details: against substance P, 10 min pretreatment, method of Schild
readout-kind: Kb (nM)
Just the number in nM, nothing appended.

// query What measured Kb is associated with CC(=O)NC1CCN(c2nc3c(c(-c4ccccc4C)n2)C(=O)N(Cc2cc(C(F)(F)F)cc(C(F)(F)F)c2)CCCO3)C1 (stereo not drawn) [Example 27] on NK1 receptor (Cavia porcellus)?
// result 0.44

// query Lookup O=C1c2c(nc(N3CCOCC3)nc2-c2ccccc2F)OCCCN1Cc1cc(C(F)(F)F)cc(C(F)(F)F)c1 [Example 2]
// result 0.294

// query Lookup Cc1ccccc1-c1nc(N2CCCN(C)CC2)nc2c1C(=O)N(Cc1cc(C(F)(F)F)cc(C(F)(F)F)c1)CCCO2 [Example 26]
// result 0.398
